Target: mutant MGL (Homo sapiens, UniProt Q99685, L169S/L176S)
Sequence (Q99685 1-303 L169S/L176S): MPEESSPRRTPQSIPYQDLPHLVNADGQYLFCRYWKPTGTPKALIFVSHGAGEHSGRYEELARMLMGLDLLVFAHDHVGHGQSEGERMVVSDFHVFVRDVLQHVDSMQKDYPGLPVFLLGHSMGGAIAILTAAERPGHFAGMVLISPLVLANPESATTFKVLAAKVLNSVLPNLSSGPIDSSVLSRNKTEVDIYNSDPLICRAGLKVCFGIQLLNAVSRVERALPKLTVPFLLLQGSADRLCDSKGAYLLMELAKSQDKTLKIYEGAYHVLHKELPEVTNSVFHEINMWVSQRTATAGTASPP
Experiment: MGL ThermoFluor assay - mutant
Type: binding
Conditions: ThermoFluor concentration-response, read-out: MGL mutant ThermoFluor Kd
measurement.kind: log10(Kd) (log10 of the value in nM)
# log10 transformed; quantity=Kd; unit=nM

Lookup: Check the records and state log10(Kd) for `O=C(c1ccc(-n2cnc3ccccc32)cc1)N1CC(N2CCN(C(=O)c3nccs3)CC2)C1`
Found: 2.05

Lookup: Input `COc1cc(C(=O)N2CC(N3CCN(C(=O)c4cscn4)CC3)C2)ccc1-c1ccccc1` , output reported log10(Kd).
Found: 1.94

Lookup: // fetch log10(Kd) given entry `Cc1c(Cc2ccc(C(F)(F)F)cc2)cccc1C(=O)N1CC(N2CCN(C(=O)c3nccs3)CC2)C1`
Found: 1.95

Lookup: For the molecule `O=C(c1ccc(-c2nc(-c3ccc(Cl)cc3Cl)cs2)cc1)N1CC(N2CCN(C(=O)c3nccs3)CC2)C1` , give its reported log10(Kd).
Found: 0.78

Lookup: Kindly indicate its recorded log10(Kd). Item: `O=C(c1ccccc1)N1CCN(C2CN(C(=O)c3ccc(NC4CCC(F)(F)CC4)cc3)C2)CC1`
Found: 1.95

Lookup: Indicate the recorded log10(Kd) value for this molecule: `O=C(c1ccccc1)N1CCN(C2CN(C(=O)c3sc4cc(Cl)ccc4c3C(F)(F)F)C2)CC1`
Found: 1.70

Lookup: Write down log10(Kd) measured for item `O=C(c1cc[nH]c1)N1CC(N2CCN(C(=O)c3cc4cc(C(F)(F)F)ccc4s3)CC2)C1`
Found: 2.30

Lookup: Could you please provide reported log10(Kd) for `O=C(c1ccc2c(c1)[nH]c(=O)n2CC(F)(F)F)N1CC(N2CCN(C(=O)c3nccs3)CC2)C1` ? Thanks!
Found: 1.98
